- Test system: Mus musculus
- Measurement Notes: In vivo efficacy against L1210 leukemic cells, inoculated intraperitoneally in mice at schedule - day 1. Dose 400 mg/kg
- Format: functional
- Condition Summary: route intraperitoneal
Readout Kind: T/C (%)
Could you give me the number in %? Just the number is fine.

Entry Nc1nc(N)c2nnn(C3CC(CO)C(O)C3O)c2n1 (centres undefined) : reported T/C = ?
97

Entry Nc1nc(O)c2nnn(C3CC(CO)C(O)C3O)c2n1 (centres undefined) : reported T/C = ?
109

Entry Nc1nc(Cl)c2ncn(C3CC(CO)C(O)C3O)c2n1 (centres undefined) : reported T/C = ?
104

Entry Nc1nc(Cl)c2nnn(C3CC(CO)C(O)C3O)c2n1 (centres undefined) : reported T/C = ?
111
